# conditions: in water, 283.15 K
parameter measured: solubility (mole fraction)
One number for each entry.

Dear colleague, please send me the reported solubility (mole fraction) for C[C@H]1[C@H](OC(=O)CCC(=O)O)O[C@@H]2O[C@@]3(C)CC[C@H]4[C@H](C)CC[C@@H]1[C@@]24OO3 when you can.
1.28e-05

---

# conditions: in propylene glycol, 298.15 K
parameter measured: solubility (mole fraction)
One number for each entry.

Dear colleague, please send me the reported solubility (mole fraction) for C[C@H]1[C@H](OC(=O)CCC(=O)O)O[C@@H]2O[C@@]3(C)CC[C@H]4[C@H](C)CC[C@@H]1[C@@]24OO3 when you can.
0.00205
